Cited source: patent US20210246166A1

tested-on: T1, recombinant rat MASP1 active protease (amino acids 302-704, C-terminal His Tag) (rat, UniProt Q8CHN8 302-704)
T1 sequence: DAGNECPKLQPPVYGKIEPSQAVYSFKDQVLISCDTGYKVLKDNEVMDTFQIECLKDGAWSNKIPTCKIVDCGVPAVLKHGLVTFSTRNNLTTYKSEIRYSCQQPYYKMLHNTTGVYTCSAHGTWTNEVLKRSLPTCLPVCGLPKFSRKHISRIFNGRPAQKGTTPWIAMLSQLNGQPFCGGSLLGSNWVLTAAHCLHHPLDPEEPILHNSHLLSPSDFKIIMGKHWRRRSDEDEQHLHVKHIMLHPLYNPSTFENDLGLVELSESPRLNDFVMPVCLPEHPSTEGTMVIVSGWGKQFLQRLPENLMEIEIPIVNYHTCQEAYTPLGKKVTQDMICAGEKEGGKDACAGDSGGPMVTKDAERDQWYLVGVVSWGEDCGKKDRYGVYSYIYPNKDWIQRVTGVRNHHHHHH
experiment-description: cell-based or functional assay
Bridge positions count the residues as written; N and C are the ends. Square brackets hold non-standard residues; d marks the D form. Ends that are not written are not given here. Gly(cPent) = N[C@H](C(=O)O)C1CCCC1; tBuAla = CC(C)(C)C[C@H](N)C(=O)O; NMeC = CN[C@@H](CS)C(=O)O
Readings of rat MASP1 IC50 for the listed binders
Report the figure in nM without appending any unit label.

Record summary for WICSRS[tBuAla]PPI[NMeC]I-NH2 (disulfide 3-11; N-terminus assumed; SMILES CC[C@H](C)[C@H](NC(=O)[C@@H]1CSSC[C@H](NC(=O)[C@@H](NC(=O)[C@@H](N)Cc2c[nH]c3ccccc23)[C@@H](C)CC)C(=O)N[C@@H](CO)C(=O)N[C@@H](CCCNC(=N)N)C(=O)N[C@@H](CO)C(=O)N[C@@H](CC(C)(C)C)C(=O)N2CCC[C@H]2C(=O)N2CCC[C@H]2C(=O)N[C@@H]([C@@H](C)CC)C(=O)N1C)C(N)=O) [Example 223: WIC+SRS-((tBu)A)-PPI-((N-Me)C)+I-NH2] : reported rat MASP1 IC50 = 120

Okay, now this binder:
Record summary for AICSRSLPP[Gly(cPent)]CIPD-NH2 (disulfide 3-11; N-terminus assumed; SMILES CC[C@H](C)[C@H](NC(=O)[C@H](C)N)C(=O)N[C@H]1CSSC[C@@H](C(=O)N[C@H](C(=O)N2CCC[C@H]2C(=O)N[C@@H](CC(=O)O)C(N)=O)[C@@H](C)CC)NC(=O)[C@H](C2CCCC2)NC(=O)[C@@H]2CCCN2C(=O)[C@@H]2CCCN2C(=O)[C@H](CC(C)C)NC(=O)[C@H](CO)NC(=O)[C@H](CCCNC(=N)N)NC(=O)[C@H](CO)NC1=O) [Example 262: AIC+SRSLPP-(Cpg)-C+IPD-NH2] : reported rat MASP1 IC50 = 490
